Assay: LTI-291-003 multiple dose study in GBA-PD: plasma and CSF pharmacokinetics
Assay type: in vivo, human
Details: human, plasma, oral, 30 mg, 30 mg daily, dose 28, GBA-PD, geometric mean; read-out: AUC0-6
Measurement name: AUC(0-t)

Q: Give the measured AUC(0-t) of CCCCCO[C@H]1CC[C@H](NC(=O)c2cnn3c(C)cc(C)nc23)CC1 .
A: 7230 ng·h/mL

* * *

Assay: LTI-291-002 multiple ascending dose study: plasma and CSF pharmacokinetics
Assay type: in vivo, human
Details: 3 mg daily, dose 7, geometric mean
Measurement name: Cavg (ng/mL)
Note: unit ng/mL is implicit; provide only the numeric part.

Q: For the compound shown here, CCCCCO[C@H]1CC[C@H](NC(=O)c2cnn3c(C)cc(C)nc23)CC1 , give the reported Cavg.
A: 80.1

* * *

Test: clinical
Conditions: both, human, plasma, 60 mg, AUC0-t, 60 mg Compound A alone, Madopar portion, geometric mean
Measurement name: AUC(0-t) (ng·h/mL)
Write the answer as a number in ng·h/mL, unit excluded.

Q: Recorded AUC(0-t) for CCCCCO[C@H]1CC[C@H](NC(=O)c2cnn3c(C)cc(C)nc23)CC1 [Compound A] , please?
A: 22800

* * *

Assay: LTI-291-001 single ascending dose study: plasma pharmacokinetics and food effect
Type: in vivo, human
Conditions: human, plasma, po, 10 mg, 10 mg fed, single oral dose, geometric mean
Measurement name: AUC(0-inf) (ng·h/mL)
The reply should be a number in ng·h/mL, with the unit left off.

Q: Param item = CCCCCO[C@H]1CC[C@H](NC(=O)c2cnn3c(C)cc(C)nc23)CC1 ; retrieve measured AUC(0-inf).
A: 8530

* * *

Test: LTI-291-001 single ascending dose study: plasma pharmacokinetics and food effect
Format: in vivo, human
Conditions: human, plasma, po, 3 mg, 3 mg fasted, single oral dose, geometric mean
Measurement name: AUC(0-inf) (ng·h/mL)
Report the figure in ng·h/mL without appending any unit label.

Q: Could you tell me which AUC(0-inf) is on file for CCCCCO[C@H]1CC[C@H](NC(=O)c2cnn3c(C)cc(C)nc23)CC1 ?
A: 2260

* * *

Test: LTI-291-002 multiple ascending dose study: plasma and CSF pharmacokinetics
Assay type: in vivo, human
Details: human, plasma, oral, 3 mg, 3 mg daily, dose 1, geometric mean; read-out: AUC0-24
Measurement name: AUC(0-t)
Remember to put the unit after the number in your answer.

Q: GET /values?readout=AUC(0-t)&item= CCCCCO[C@H]1CC[C@H](NC(=O)c2cnn3c(C)cc(C)nc23)CC1
A: 1050 ng·h/mL

* * *

Test: LTI-291-002 multiple ascending dose study: plasma and CSF pharmacokinetics
Assay type: in vivo, human
Conditions: human, plasma, oral, 30 mg, 30 mg daily, dose 7, geometric mean; read-out: AUC0-24
Measurement name: AUC(0-t) (ng·h/mL)
Numeric only. Scale: ng·h/mL

Q: What measured AUC(0-t) goes with CCCCCO[C@H]1CC[C@H](NC(=O)c2cnn3c(C)cc(C)nc23)CC1 [Compound A] ?
A: 26500

* * *

Test: LTI-291-002 multiple ascending dose study: plasma and CSF pharmacokinetics
Assay type: in vivo, human
Conditions: human, plasma, oral, 3 mg, 3 mg daily, dose 14, geometric mean; read-out: t½ (converted)
Measurement name: half-life (h)
Field: numeric (h). Do not append units.

Q: What measured half-life goes with CCCCCO[C@H]1CC[C@H](NC(=O)c2cnn3c(C)cc(C)nc23)CC1 ?
A: 36.5
